target of assay: Muscarinic acetylcholine receptor M4 (Homo sapiens) (UniProt P08173)
Sequence (P08173 whole entry, looked up): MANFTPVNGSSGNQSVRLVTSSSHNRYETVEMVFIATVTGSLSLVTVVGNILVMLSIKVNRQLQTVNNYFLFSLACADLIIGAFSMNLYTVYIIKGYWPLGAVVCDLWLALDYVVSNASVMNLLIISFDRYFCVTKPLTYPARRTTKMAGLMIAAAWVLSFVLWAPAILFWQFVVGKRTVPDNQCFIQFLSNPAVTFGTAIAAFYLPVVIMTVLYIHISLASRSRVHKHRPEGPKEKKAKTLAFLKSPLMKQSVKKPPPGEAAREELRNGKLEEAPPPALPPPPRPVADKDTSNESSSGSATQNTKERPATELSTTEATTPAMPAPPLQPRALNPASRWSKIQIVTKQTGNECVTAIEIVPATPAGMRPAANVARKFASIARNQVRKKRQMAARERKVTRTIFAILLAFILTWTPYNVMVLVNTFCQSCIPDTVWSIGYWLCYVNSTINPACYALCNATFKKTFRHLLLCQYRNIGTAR
run description: M4-linked GIRK flux change, two-sided – cell-based, HEK293 M4/GIRK, thallium flux, BTC-AM, M4 allosteric agonist project, primary screen (AID 625);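 further: thallium influx through GIRK channels coupled to M4 in HEK293 cells with BTC-AM dye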
reported conditions: at 10 µM, actives lie on both sides
Please mark fulfilled if the recorded fluorescence slope is equal to or greater than 0.005, and not fulfilled if it falls below.

* COc1ccccc1NC(=O)N1CCN(c2cccc(C(F)(F)F)c2)CC1 | fulfilled
* CCc1cc(C)cc(OCCNC(=O)c2ncn[nH]2)c1 | fulfilled
* c1ccc(Cn2nnc3c(N4CCC5(CC4)OCCO5)ncnc32)cc1 | fulfilled
* COC(=O)c1[nH]c2cc(OC)ccc2c1NC(=O)CN1CCOCC1 | fulfilled
* Cc1onc(-c2ccccc2Cl)c1C(=O)Nc1cccc(-c2cn3cccnc3n2)c1 | fulfilled
* Cc1cc(C)cc(OCCCC(=O)O)c1 | not fulfilled
* CC(C)CCn1c(N)c(S(=O)(=O)c2cccs2)c2nc3ccccc3nc21 | fulfilled
* COCCNC(=O)CSc1nc(-c2ccc(OC)c(OC)c2)cc(C(F)(F)F)n1 | not fulfilled
* COc1cccc(NC(=O)CSc2nnc(-c3cccs3)n2C)c1 | fulfilled
* CCOC(=O)c1[nH]c(C)c(C(=O)N(C)C)c1C | fulfilled
* CC(=O)Nc1nc(-c2ccccc2)nc(C)c1C(C)=O | fulfilled
* CCOC(=O)c1ccc(NC(=O)CCNc2c(N3CCCC3)c(=O)c2=O)cc1 | not fulfilled
* O=C(c1cccs1)N1CCc2ccccc21 | fulfilled
* COC(=O)COc1nc(C)c(Br)c(OC)n1 | not fulfilled
* CC1(C)Cc2noc(N)c2C(C)(C)N1OC(=O)c1ccccc1 | fulfilled
* COc1ccc(CC(=O)NCc2cccs2)cc1 | fulfilled
* C=CCn1c(C)cc(C(=O)CSc2nc3ccccc3c(=O)[nH]2)c1C | fulfilled
* C=CCn1cc(C(=O)NCCOC)c(=O)c2cc(S(=O)(=O)N(CC)CC)ccc21 | fulfilled
* CC1(C)CC(=O)c2c(O)cc(O)cc2O1 | fulfilled
* Cc1c(NC(=O)CN2c3cccc4cccc(c34)S2(=O)=O)c(=O)n(-c2ccccc2)n1C | not fulfilled
* CC(C)(C)C(=O)Cn1c(=N)n(Cc2ccccc2)c2ccccc21 | not fulfilled

---

run description: endothelial E-selectin expression blockers – imaging, HUVEC, immunofluorescence, MLSMR starter and 10KST1 sets, primary screen (AID 487);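 further: 100% = median nuclei count of all wells on the same plate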
reported conditions: HUVEC TNFalpha-induced E-selectin immunofluorescence imaging, at 2 µM; measured here: cell number, toxicity
measured metric: nuclei count (%)

* O=C(CN(c1ccc(F)cc1)S(=O)(=O)c1ccc2c(c1)OCCO2)Nc1cccnc1 | 111
* CC(C)[C@H](NC(=O)[C@@H]1CSCN1C(=O)OC(C)(C)C)C(=O)NCC1CCC(C(=O)O)CC1 (stereo not given in full) | 84.4
* Cc1ccc(S(=O)(=O)N2CCN(C(=O)N3CCOCC3)C2c2ccc(N(C)C)cc2)cc1 (stereo not given) | 121
* Oc1ccc(Nc2nc(-c3ccc(O)cc3)cs2)cc1 | 124
* O=C(NC1CCCCCC1)c1c(F)c(F)c(F)c(F)c1F | 118

---

run description: inhibitors of TNFa-induced NFkB p65 translocation, primary screen, imaging, HUVEC, MLSMR starter and 10KST1 sets (AID 438);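 further: compound added about 3h40 before a 20 min TNFalpha stimulation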
reported conditions: HUVEC TNFa-induced p65 nuclear translocation; measured here: nuclei count (cytotoxicity indicator), at 2.08 µM
measured metric: cell count

- CCC(C(=O)Nc1ccccc1C(=O)N1CCCC1)N1C(=O)c2ccccc2C1=O (configuration not stated): 623
- Cc1cc(NC(=O)CSc2nc3c(c(-c4cccnc4)c2C#N)CCC3)no1: 595
- COc1ccc2cc(C#N)c(NC(C)C)nc2c1: 481
- CC(=O)c1cccc(NC(=O)NCc2ccccn2)c1: 655
- Cc1ccc(/C(O)=C2\C(=O)C(=O)N(CCCN(C)C)C2c2ccccn2)cc1 (configuration not stated): 536
- CN1C(=S)SC(C)(NO)C1(C)C (configuration not stated): 446
- S=C(c1ccc(N2CCOCC2)cc1)N1CCCCC1: 375
- Cc1ccnc(NC(=O)C2CCCN(S(=O)(=O)c3cnc[nH]3)C2)c1 (configuration not stated): 526
- CCOC(OCC)P(=O)(C(C)C)C(C)C: 491
- O=C(CC(CC(=O)c1ccccc1)C(=O)O)c1ccccc1: 393
- COCC(=O)NC(c1ccccc1)c1ccccc1: 336
- Cc1cccc(C)c1NC(=O)N1CCN(C2CCCCC2)CC1: 364

---

run description: TLR3 IRF3 reporter activation blockers – cell-based, poly I:C stimulus, luciferase, 10K MLSCN set, primary screen (AID 602277)
reported conditions: HEK293-TLR3 RL24 IRF3 luciferase reporter, at 10 µM
Calls of active or inactive are those of the source.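 Rule for the calls: active = inhibition of the reporter signal at or above 50%; inactive = inhibition below 50%.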
Classes used: yes for active, no for inactive

• O=C(Nc1nc(-c2ccc(S(=O)(=O)N3CCCCCC3)cc2)cs1)c1cccs1 = no
• CN1CCc2c(sc3c2C(=O)NC(c2cccc(OC(=O)c4cccs4)c2)N3)C1 (centres undefined) = no
• COc1ccc(-n2nnnc2-c2cccc(OC)c2)cc1 = no
• CCc1nnc(NC(=O)CSc2nnc(-c3ccoc3C)n2CC(C)C)s1 = no
• Cc1nn(-c2ccccc2)c2c1C(O)n1c(nc3ccccc31)S2 (centres undefined) = no
• N#CC1=C(N)N2C(=C(C#N)C13CCCCC3)SC1CCCCC12O (centres undefined) = no
• O=C(Nc1nc(-c2ccccc2)cs1)C1CCCO1 (centres undefined) = yes
• O=S(=O)(c1ccc(Br)s1)N1CCCCC1 = no
• Cc1cccc(NC(=O)CC2NC3CCCCC3NC2=O)c1 (centres undefined) = no
• O=C(CCNS(=O)(=O)c1ccc(Br)s1)N1CCCCC1 = no
• CCn1c(SCC(=O)c2ccc(Cl)cc2)nnc1-c1ccoc1C = no
• O=C(Nc1ccccc1C(=O)N1CCOCC1)c1cccc(S(=O)(=O)N2CCCC2)c1 = no
• Cn1c(N2CCC(C(N)=O)CC2)nc2c1c(=O)n(Cc1ccc(Br)cc1)c(=O)n2C = no
• CC1=C(C(=O)N2CCOCC2)C(c2ccccc2F)C2=C(CCCC2=O)N1 (centres undefined) = no
• CC(C)(C)c1ccc(OCC(=O)O)cc1 = no
• CCN1CCN(c2nc(C)nc3c2sc(=S)n3C)CC1 = no
• Cn1c(C(=O)NCCCN2CCN(c3ccc(F)cc3)CC2)cc2c(=O)n(C)c3ccccc3c21 = no
• CCCCCn1c(CN(C)Cc2ccccc2)nc2c1c(=O)n(C)c(=O)n2C = no
• CC1(C)CC(=O)C(C=NC(CCC(N)=O)C(=O)O)=C(O)C1 (centres undefined) = no
• Cc1ccc(C)n1-c1ccc(-n2cnnn2)cc1 = no
• CCOC(=O)CSc1nnc(-c2cccnc2)n1Cc1ccccc1 = no
• Cc1cc(C)n2nc(C(=O)NCc3ccco3)nc2n1 = no
• CCn1c(-c2cc(Br)ccc2O)n[nH]c1=S = no
• O=C(Nc1cccc2ncccc12)c1ccc2c(c1)OCCO2 = no

---

target of assay: Voltage-gated potassium channel subunit beta-2 (Rattus norvegicus)
run description: inhibitors of rat Kvbeta2 reductase activity – biochemical, NADPH fluorescence, primary screen (AID 622);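 further: slope of raw intensity against log time taken from 70 to 1610 s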
reported conditions: recombinant KvBeta, 4-cyanobenzaldehyde reduction, at 10 µM, stronger effect = higher value
Please mark Y if the recorded fluorescence slope is equal to or greater than -0.5, and N if it falls below.

• COc1cccc(OCC(O)CN2CCN(CCO)CC2)c1 (stereo unspecified) = Y
• Cc1nc2oc3c(NCc4ccccn4)ncnc3c2c2c1COC(C)(C)C2 = Y
• O=C(Nc1ccccc1)N(CCCN1CCOCC1)Cc1cc2cc3c(cc2[nH]c1=O)OCCO3 = Y
• CC(OC(=O)c1cccc(NS(C)(=O)=O)c1)C(=O)Nc1ccc(N2CCOCC2)cc1 (stereo unspecified) = N
• COCCNc1nc(C(C)(C)C)nc2c1nnn2Cc1ccccc1Cl = Y
• O=C1CC(c2ccccc2)CC(O)=C1C=NCCCN1CCOCC1 (stereo unspecified) = Y
• Cc1ccc2oc(=O)c3cnn(CC(=O)N4CCCCC4C)c3c2c1 (stereo unspecified) = N
• Cc1cc(C)n(-c2nc3ccccc3c(=O)n2OCCOc2ccccc2)n1 = Y
• O=C(NS(=O)(=O)c1ccc(NC(=O)C2CCCO2)cc1)c1ccccc1 (stereo unspecified) = Y
• CCCN1CCN(C(=O)Cn2cccc2C(=O)c2ccccc2)CC1 = Y
• CCc1cc(C)cc(OCCNC(=O)c2ncn[nH]2)c1 = N
• O=C1c2ccccc2C(Nc2ccc3c(c2)OCO3)N1Cc1ccc2c(c1)OCO2 (stereo unspecified) = Y
• O=C(c1ccc(CNc2c(N3CCCC3)c(=O)c2=O)cc1)N1CCc2ccccc2C1 = N
• CCCCCC(=O)N(CN1C(=O)CCC1=O)c1ccccc1 = Y
• FC(F)(F)c1nnc2ccc(NCn3nnc4ccccc43)nn12 = Y
• N#Cc1ccc(CSc2nnc(-c3cnccn3)o2)cc1 = N
• O=C(Nc1ccccc1C(=O)N1CCOCC1)c1cccc(S(=O)(=O)N2CCCC2)c1 = Y
• O=C(CSc1nc2ccccc2o1)N1CCN(C(=O)c2ccco2)CC1 = Y
• O=C(Nc1ccccc1)N(Cc1cccnc1)Cc1ccco1 = Y
• CC(C)CCNC(=O)CCNS(=O)(=O)c1ccc(Cl)cc1 = N
• Nc1nc(CSc2nc3ccccc3[nH]2)nc(N2CCOCC2)n1 = Y
• Cn1c(N2CCC(C(N)=O)CC2)nc2c1c(=O)n(Cc1ccc(Br)cc1)c(=O)n2C = N
• Cc1cc(C)cc(NC(=O)CN(C)S(=O)(=O)c2cnc[nH]2)c1 = Y
• CN1CCc2nc(SCC(=O)Nc3ccc(F)cc3)c(C#N)cc2C1 = Y
• CCOC(=O)N1CCN(C(=O)CN(Cc2ccccc2)S(=O)(=O)c2ccc(OC)c(C)c2)CC1 = Y
• CCS(=O)(=O)c1ccc(S(=O)(=O)CC)s1 = N
• CSc1nnc(-c2cnccn2)n1Cc1ccccc1 = Y
• CC(=O)C1=C(O)C(=O)N(Cc2ccco2)C1c1ccc(F)cc1 (stereo unspecified) = N
• O=C(Nc1cccc(NC(=O)c2cccnc2)c1)c1cccnc1 = Y
• CC1(C)OC(=O)C(=CNc2ccccc2)C(=O)O1 = N
• COc1ccc(C(=O)COC(=O)CCn2nnc(-c3cccs3)n2)cc1 = Y
• O=C(C1COc2ccccc2O1)N1CCCC1 (stereo unspecified) = Y
• Cc1ccc(C)n1-n1c(C)nc2sc(-c3ccccc3)cc2c1=O = Y
• C/C(Cl)=C\Cn1c(Nc2ccc(C)cc2)nc2c1c(=O)n(C)c(=O)n2C = N
• COc1ccc(-n2c(COc3ccccc3)nnc2SCc2ccc(C#N)cc2)cc1 = N
• Cc1ccc(CN2C(=O)CCC2C(=O)NCC2CCCO2)cc1 (stereo unspecified) = N
• CCN(CC)Cc1nc2c(c(=O)[nH]1)C1(CCCCC1)Cc1ccccc1-2 = N
• CCn1c(=O)cc(OCC(=O)Nc2cc(C)ccn2)c2ccccc21 = N
• Cc1cc(=O)oc2cc(Oc3ncccn3)ccc12 = Y
• CCn1cnc2cc(NCc3cccc(OC)c3O)ccc21 = Y
• CCCC(=O)Nc1ccc(NC(=O)c2ccccc2OC)cn1 = Y
• O=c1/c(=C/c2ccco2)sc2nc(-c3ccccc3Br)nn12 = N

# credit: PubChem BioAssay
